# System: MS2 coat protein
# procedure text: apparent KD of MS2 coat protein; designed switch direction (-1 OFF switch, 1 ON switch): -1; higher = weaker reporter binding
# condition label: input ligand: none
Below, each entry is listed alongside its reported apparent KD of MS2 coat protein.

residue codes: AGCGCCAUCGUGAGAUGGCGUAUUACAUGAGGAUCACCCAUGUAGGAUAUCGAUUGCUUUGCAGUCGAGAAGGGCAUGUUCUAG [JL ENG3 3.80 Mod G] (Eterna round: R96, puzzle: Exclusion NG 3)
assayed system: MS2 coat protein
apparent KD of MS2 coat protein / µM: 0.0736
//
residue codes: GUUUCACAUGAGGAUCACCCAUGUGAGGAUAUAAAUUUGUUAACCGUAGUUAAUAGAUUUAGAAGGCGCGUGAU [JR_Exc1_Sub001] (Eterna round: R97, puzzle: Exclusion 1)
assayed system: MS2 coat protein
apparent KD of MS2 coat protein / µM: 0.0631
//
residue codes: CCGACAAGCUGCUAAGGAUACAUGAGGAUCACCCAUGUCGGUAUCCGAGAGGUAUUGAAGUCAACCAUCGCUCGUCU [Eternabot (Original) Solution 49] (Eterna round: R97, puzzle: Sensor, turn-off variant 1)
assayed system: MS2 coat protein
apparent KD of MS2 coat protein / µM: 0.188

###

# Test system: MS2 coat protein
# procedure text: apparent KD of MS2 coat protein, switch OFF state (with FMN for OFF switches, without FMN for ON switches); designed switch direction (-1 OFF switch, 1 ON switch): 1; higher = weaker reporter binding
# condition label: FMN input: 0 or 200 uM; Eterna round: R93 (includes R88 designs)
Below, each entry is listed alongside its reported apparent KD of MS2 coat protein.
quantity: apparent KD of MS2 coat protein

residue codes: GAAAAACAUGAGGAUCACCCAUGUAAGAUAAACACAGGAUAUGCGAAAAGAAAGAAAGAAGCAGAAGGGUGAAAAG [Mat - Same State 1 - Tesla mod - 42]
quantity: apparent KD of MS2 coat protein
reported value: 43.8 nM
//
residue codes: AAAAAAAAAAGACAGGAUAUCCAAAAAAAAACAUGAGGAUCACCCAUGUAAAAAAAAAAAAAAUGGGAGAAGGGUCAAAAAAAAAA [Louisiana 5 - Jieux - Same State 2]
quantity: apparent KD of MS2 coat protein
reported value: 36.5 nM
//
residue codes: AAAUAAAAAAAAAAGGAUAUUCAUGUAAAAACAUGAGGAUCACCCAUGUAAAAAAAUAAAAAUAAAAAGAAGGAAAAAUAAAAAA [SS2: 85 No MS2]
quantity: apparent KD of MS2 coat protein
reported value: 164 nM
//
residue codes: GAUAAACAUGAGGAUCACCCAUGUAGAAAUAUGGGAGGAUAUACAAAGACGAAAGUCAAAGUAGAAGGCCUAAAAG [77%, Mat - Mod of Eli - With 1 more U's]
quantity: apparent KD of MS2 coat protein
reported value: 55.5 nM
//
residue codes: AGGAAACAUGAGGAUCACCCAUGUAAAAGGUGGUUAGGAUAUGCAAAAAGAAAAAGAAAAGCAGAAGGGACAAGAA [mod of top voted: #1]
quantity: apparent KD of MS2 coat protein
reported value: 600 nM
//
residue codes: AAAAGACAUGAGGAUCACCCAUGUCAAAACGUGGGAGGAUAUGCAUGGAAAACAUGCUGUGCAGAAGGCCCGUGUC [SS1 - 21]
quantity: apparent KD of MS2 coat protein
reported value: 46.4 nM
